- run-description: Qualitative assessment of reduction of methylene blue in aqueous solution (visual colour change blue to colourless)
- Assay type: physicochemical
- experimental-parameters: neutral, final pH about 6.5

- compound: "CSCC[C@H](N)C(=O)O"
  Rate/extent of reduction: "no reduction"
- compound: "Cl.N[C@@H](CS)C(=O)O [L-cysteine, L-cysteine hydrochloride]"
  Rate/extent of reduction: "no reduction"
- compound: "O=S([O-])S(=O)(=O)[O-].[Na+].[Na+] [sodium metabisulphite]"
  Rate/extent of reduction: "no reduction"

Data credit: patent US20040033936A1
